SYSTEM: U1A N-terminal RRM (native) (UniProt P09012 1-102)
Sequence (P09012 1-102): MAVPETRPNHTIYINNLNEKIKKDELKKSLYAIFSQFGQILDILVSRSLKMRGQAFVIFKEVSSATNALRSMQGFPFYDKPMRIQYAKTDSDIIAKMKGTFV
TEST_PROTOCOL: SPR
EXPERIMENTAL_READOUT: Kd

For this binder ( AGCUUAUCCAUUGCACUCCGGAUGAGCU (structured_RNA) [U1hpII] ), measured Kd is ~40 pM

Values were extracted from paper PMC5199234.
